Entries annotated with measured growth inhibition
experiment_description: NCI Yeast Anticancer Drug Screen. Data for the bub3 strain (AID 167)
stated_conditions: S. cerevisiae bub3 mutant strain, at 50.0 µM (retest, dose inferred, filed as 5.0), active compounds read high
This is part of a sample that, as a whole, favours compounds with a hit. Of some 79,000 tested, about 15% had one in any assay.
parameter: growth inhibition (%)

| molecule | parameter | unit_spec | experimental_value |
| --- | --- | --- | --- |
| CCCn1c(=O)c2ccccc2[n+]2c(-c3ccc([N+](=O)[O-])cc3)csc12 | growth inhibition | % | 97 |
| C=CCCCCn1c2ccccc2c2c(C)c3c[n+](C)ccc3c(C)c21 | growth inhibition | % | 98 |
| CCCCc1c2c(nc3c1CC/C(=C\c1ccccc1)C3=O)CCCC2 | growth inhibition | % | 98 |
| Cc1c[nH]c2nc(C)n(-c3ccccc3)c(=N)c12 | growth inhibition | % | -3 |
| N=c1n(CC(=O)NC23CC4CC(CC(C4)C2)C3)c2ccccc2n1CC(=O)NC12CC3CC(CC(C3)C1)C2 | growth inhibition | % | 12 |
| Cc1c(O)c(Br)c(Br)c(Br)c1Br | growth inhibition | % | 96 |
| COc1ccc2ccccc2c1/C=C/C(=O)c1ccccc1 | growth inhibition | % | 58 |
| Cc1cc(=O)n(-c2cc3cccccc-3n2)[nH]1 | growth inhibition | % | 95 |
| COc1ccc2nc3cccc([N+](=O)[O-])c3c(NCCO)c2c1 | growth inhibition | % | 86 |
| O=C(N/C(=C\c1ccc([N+](=O)[O-])cc1)c1nc2ccccc2s1)c1ccccc1 | growth inhibition | % | 83 |
| CCCCCC(/C=N/NC(N)=S)C(O)(C(F)(F)F)C(F)(F)F (stereo unspecified) | growth inhibition | % | 77 |

---

experiment_description: NCI Yeast Anticancer Drug Screen. Data for the bub3 strain (AID 167)
stated_conditions: S. cerevisiae bub3 mutant strain, at 50.0 µM, active compounds read high
The panel holds about 79,000 compounds, 15% with a hit somewhere; the sample as a whole holds those more often.
parameter: growth inhibition (%)

| compound | parameter | experimental_value |
| --- | --- | --- |
| C(=C\c1ccc(-[n+]2nc(-c3ccccc3)nn2-c2ccccc2)cc1)/c1ccccc1 | growth inhibition | 92.3 |
| O=Cc1cc2ccccc2cc1C=O | growth inhibition | 86.5 |
| Cc1ccc(C(=O)OCC(C)C)cc1N=NN(C)C | growth inhibition | 31.1 |
| CSc1nnc(CCC(=O)Nc2c(C)cccc2C(C)(C)C)o1 | growth inhibition | 0.65 |
| O=[N+]([O-])/C(C=Nc1ccccc1)=C/Nc1ccccc1 | growth inhibition | 31.6 |
| CC(C)/C=C1\CCC(CN2CCOCC2)C1=O (stereo unspecified) | growth inhibition | 30.6 |
| CC(C)(C)N1OC2(c3ccccc3)OC3N(C(C)(C)C)OC4(c5ccccc5)OC1C2(c1ccccc1)C34c1ccccc1 (stereo unspecified) | growth inhibition | 99.2 |
| COc1ccc(N=Nc2ccc3oc(=O)c(C(=O)Nc4ccccc4C)cc3c2)cc1 | growth inhibition | 97.7 |
| O=C1C=CC(Nc2cccc([N+](=O)[O-])c2)C1Nc1cccc([N+](=O)[O-])c1 (stereo unspecified) | growth inhibition | 90.7 |
| CCOc1c(N=Nc2ccc(Cl)cc2)c(-c2ccccc2)nn1C(=S)S | growth inhibition | 92.8 |
| Cc1cccc(/C=N/Nc2cc(C)nc3ccccc23)n1 | growth inhibition | 19.7 |
